# TARGET DESC: T1, human ghrelin O-acyltransferase (hGOAT) of the hGOAT inhibition assays (human, UniProt Q96T53 1-435)
# T1 sequence (looked up): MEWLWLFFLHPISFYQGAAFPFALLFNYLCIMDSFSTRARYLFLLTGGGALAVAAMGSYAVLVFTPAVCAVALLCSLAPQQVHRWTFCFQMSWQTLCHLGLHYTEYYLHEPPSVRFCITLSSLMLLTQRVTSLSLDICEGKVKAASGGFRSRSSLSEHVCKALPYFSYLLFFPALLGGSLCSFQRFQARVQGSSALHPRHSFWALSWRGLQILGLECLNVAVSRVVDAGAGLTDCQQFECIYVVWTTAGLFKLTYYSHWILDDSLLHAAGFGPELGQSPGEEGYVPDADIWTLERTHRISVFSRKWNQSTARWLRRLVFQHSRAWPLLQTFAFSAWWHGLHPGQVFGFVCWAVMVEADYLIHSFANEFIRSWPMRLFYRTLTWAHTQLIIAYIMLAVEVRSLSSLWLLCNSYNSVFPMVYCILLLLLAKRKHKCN
# ASSAY PROTOCOL: cell-based or functional assay
PROPERTY NAME: inhibition of hGOAT activity (IC50 against hGOAT)

binder="XSXFLSPY (HELM PEPTIDE1{[O=C(C1CCNCC1)[*:2]].S.[NC[C@H](N[*:1])C(=O)[*:2]].F.L.S.P.Y.[am]}$$$$V2.0; SMILES CC(C)C[C@H](NC(=O)[C@H](Cc1ccccc1)NC(=O)[C@H](CN)NC(=O)[C@H](CO)NC(=O)C1CCNCC1)C(=O)N[C@@H](CO)C(=O)N1CCC[C@H]1C(=O)N[C@@H](Cc1ccc(O)cc1)C(N)=O) [ligand 5, H-Inp-S-Dap-FLSPY-NH2]" result="> 100 µM"
